tested on: IGROV; test: cells; format: cell-based; conditions: read-out: LC50, 48 hours exposure, SRB
# Lookup of reported CC50 keyed by entry
measured.endpoint: CC50 (nM)

>>> reported_result("COc1c(C)cc2c(c1O)[C@@H]1C3[C@@H]4SC[C@]5(NC(C)Cc6c5[nH]c5ccc(F)cc65)C(=O)COC[C@@H](c5c6c(c(C)c(OC(C)=O)c54)OCO6)N3[C@@H](O)[C@H](C2)N1C (some centres unmarked) [Compound 42]")
10.7
>>> reported_result("COc1c(C)cc2c(c1O)[C@@H]1C3[C@@H]4SC[C@]5(NC(C)Cc6c5[nH]c5ccc(O)cc65)C(=O)COC[C@@H](c5c6c(c(C)c(OC(C)=O)c54)OCO6)N3[C@@H](O)[C@H](C2)N1C (some centres unmarked) [Compound 38]")
8.4
>>> reported_result("COc1c(C)cc2c(c1O)[C@@H]1C3[C@@H]4SC[C@]5(C(=O)COC[C@@H](c6c7c(c(C)c(OC(C)=O)c64)OCO7)N3[C@@H](O)[C@H](C2)N1C)c1[nH]c2ccccc2c1CCN5C (some centres unmarked) [Compound 39]")
2320
>>> reported_result("COc1c(C)cc2c(c1O)[C@@H]1C3[C@@H]4SC[C@]5(NC(C)Cc6c5[nH]c5ccc(O)cc65)C(=O)COC[C@@H](c5c6c(c(C)c(OC(C)=O)c54)OCO6)N3[C@@H](O)[C@H](C2)N1C (some centres unmarked) [Compound 37]")
613
>>> reported_result("COc1c(C)cc2c(c1O)[C@@H]1C3[C@@H]4SC[C@]5(C(=O)COC[C@@H](c6c7c(c(C)c(OC(C)=O)c64)OCO7)N3[C@@H](O)[C@H](C2)N1C)c1[nH]c2ccccc2c1CCN5C (some centres unmarked) [Compound 40]")
8.86

* * *

test system: AML-12, normal mouse liver cells; conditions: 24 h
measured.endpoint: Liver

>>> reported_result("COc1c(C)cc2c(c1O)[C@@H]1C3[C@@H]4SC[C@]5(NC(C)Cc6c5[nH]c5ccc(F)cc65)C(=O)COC[C@@H](c5c6c(c(C)c(OC(C)=O)c54)OCO6)N3[C@@H](O)[C@H](C2)N1C (stereo partly drawn) [Compound 42]")
"1.86E−07"
>>> reported_result("COc1c(C)cc2c(c1O)[C@@H]1C3[C@@H]4SC[C@]5(NCCc6c5[nH]c5ccc(C)cc65)C(=O)COC[C@@H](c5c6c(c(C)c(OC(C)=O)c54)OCO6)N3[C@@H](O)[C@H](C2)N1C (stereo partly drawn)")
"2.72E−07"
>>> reported_result("COc1ccc2[nH]c3c(c2c1)CCN[C@]31CS[C@@H]2c3c(OC(C)=O)c(C)c4c(c3[C@H](COCC1=O)N1C2[C@H]2c3c(cc(C)c(OC)c3O)C[C@@H]([C@@H]1O)N2C)OCO4 (stereo partly drawn)")
"1.48E−08"
>>> reported_result("COc1c(C)cc2c(c1O)[C@@H]1C3[C@@H]4SC[C@]5(NCCc6c5[nH]c5cc(F)ccc65)C(=O)COC[C@@H](c5c6c(c(C)c(OC(C)=O)c54)OCO6)N3[C@@H](O)[C@H](C2)N1C (stereo partly drawn)")
"6.00E−07"
>>> reported_result("COc1c(C)cc2c(c1O)[C@@H]1C3[C@@H]4SC[C@]5(NC(C)Cc6c5[nH]c5ccc(F)cc65)C(=O)COC[C@@H](c5c6c(c(C)c(OC(C)=O)c54)OCO6)N3[C@@H](O)[C@H](C2)N1C (stereo partly drawn) [Compound 41]")
"6.30E−08"
>>> reported_result("COc1c(C)cc2c(c1O)[C@@H]1C3[C@@H]4SC[C@]5(NC(C)Cc6c5[nH]c5ccccc65)C(=O)COC[C@@H](c5c6c(c(C)c(OC(C)=O)c54)OCO6)N3[C@@H](O)[C@H](C2)N1C (stereo partly drawn) [Compound 43]")
"7.57E−08"
>>> reported_result("COc1c(C)cc2c(c1O)[C@@H]1C3[C@@H]4SC[C@]5(C(=O)COC[C@@H](c6c7c(c(C)c(OC(C)=O)c64)OCO7)N3[C@@H](O)[C@H](C2)N1C)c1[nH]c2ccccc2c1CCN5C (stereo partly drawn) [Compound 39]")
"1.14E−06"
>>> reported_result("COc1c(C)cc2c(c1O)[C@@H]1C3[C@@H]4SC[C@]5(NCCc6c5[nH]c5ccc(O)cc65)C(=O)COC[C@@H](c5c6c(c(C)c(OC(C)=O)c54)OCO6)N3[C@@H](O)[C@H](C2)N1C (stereo partly drawn)")
"1.89E−08"
>>> reported_result("COc1c(C)cc2c(c1O)[C@@H]1C3[C@@H]4SC[C@]5(NCCc6c5[nH]c5ccccc65)C(=O)COC[C@@H](c5c6c(c(C)c(OC(C)=O)c54)OCO6)N3[C@@H](O)[C@H](C2)N1C (stereo partly drawn)")
"1.06E−06"
